target: rat EP2 receptor (Rattus norvegicus); construct: cells seeded on STEP plates; experiment: SEAP activity assay on EP2 STEP plate; conditions: SEAP luminescence, 6-8 hours of stimulation; read-out: STEP cell functional assay EC50 SEAP/EP2
Sequence (Q62928 whole entry): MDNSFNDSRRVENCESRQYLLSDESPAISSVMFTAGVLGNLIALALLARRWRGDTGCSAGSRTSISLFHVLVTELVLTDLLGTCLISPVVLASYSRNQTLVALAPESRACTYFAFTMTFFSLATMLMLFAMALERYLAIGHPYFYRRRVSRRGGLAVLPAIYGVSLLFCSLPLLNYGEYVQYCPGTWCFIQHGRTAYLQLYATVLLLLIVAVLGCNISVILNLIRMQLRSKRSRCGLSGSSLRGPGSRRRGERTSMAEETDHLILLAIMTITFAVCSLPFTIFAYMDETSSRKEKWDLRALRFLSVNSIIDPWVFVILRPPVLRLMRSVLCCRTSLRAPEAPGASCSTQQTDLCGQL
pEC50: −log10 of the molar value.
The entries below come with measured pEC50 values attached.
Measured Parameter: pEC50

1. CC#CCC(C)[C@@H](O)/C=C/[C@H]1CCC(=O)N1CCc1ccc(C(=O)O)cc1 (mixture of isomers) [Example 8D] ... 5.95
2. CC(CC#Cc1ccccc1)[C@@H](O)/C=C/[C@H]1CCC(=O)N1CCc1ccc(C(=O)O)cc1 (mixture of isomers) [Example 11D] ... 5.76
3. CC#CC[C@@H](C)[C@H](O)/C=C/[C@H]1CCC(=O)N1CCCCCCC(=O)O [Example 1F] ... 6.74
4. CCCC#CCC(C)[C@H](O)/C=C/[C@H]1CCC(=O)N1CCCCCCC(=O)OC (mixture of isomers) [Example 3A] ... 5.60
